Target: VIM-2 (Escherichia coli)
Assay: biochemical
Conditions: CCF2-FA fluorescence assay; read-out: VIM2 IC50
Property Name: pIC50
Notebook: values listed as pIC50 are -log10 of the concentration (mol/L).

In the examples that follow, each entry is paired with its recorded pIC50.
- Smiles Representation: "NCCC1CCN(c2ccc(S(=O)(=O)N[C@H](CN)CO)c(S(N)(=O)=O)c2-c2nn[nH]n2)CC1"
  Data Value: 8.31
- Smiles Representation: "NC[C@@H](O)CNS(=O)(=O)c1ccc(N2CCN(C(CO)CO)CC2)c(-c2nn[nH]n2)c1S(N)(=O)=O"
  Data Value: 8.26
- Smiles Representation: "NS(=O)(=O)c1c(S(=O)(=O)N[C@@H]2CCNC2)ccc(N2CCCCC2=O)c1-c1nn[nH]n1"
  Data Value: 9.14

Asked: Given CC1(CN)CCN(c2ccc(S(=O)(=O)NC[C@H](O)CN)c(S(N)(=O)=O)c2-c2nn[nH]n2)CC1 , state its recorded pIC50.
Given back: 7.99

---

Biological target: VIM-2 (Escherichia coli)
Assay: biochemical
Conditions: CCF2-FA fluorescence assay; read-out: VIM2 IC50
Property Name: pIC50
Notebook: values listed as pIC50 are -log10 of the concentration (mol/L).

Asked: Given NC[C@@H](O)CNS(=O)(=O)c1ccc(N2CC[C@H](N)[C@H](F)C2)c(-c2nn[nH]n2)c1S(N)(=O)=O , state its recorded pIC50.
Given back: 8.54

Asked: Given NS(=O)(=O)c1c(S(=O)(=O)C2CNC2)ccc(N2CCC[C@H](O)C2)c1-c1nnn[nH]1 , state its recorded pIC50.
Given back: 8.57

Asked: Given NS(=O)(=O)c1c(S(=O)(=O)C2CNC2)ccc(N2CCC(O)CC2)c1-c1nnn[nH]1 , state its recorded pIC50.
Given back: 8.47

Asked: Given NC[C@@H](O)CNS(=O)(=O)c1ccc(N2CC[C@H](CN)[C@@H](F)C2)c(-c2nn[nH]n2)c1S(N)(=O)=O (stereo in doubt) , state its recorded pIC50.
Given back: 8.39

Asked: Given NC[C@H](N)CNS(=O)(=O)c1ccc(N2CCC(c3c[nH]cn3)CC2)c(-c2nn[nH]n2)c1S(N)(=O)=O , state its recorded pIC50.
Given back: 9.32

---

System: P. aeruginosa MB9798 (efflux+, IMP-1 plasmid)
Details: efflux + (MB9798) strain; imipenem at 2 μg/mL; in the presence of a class A, C, D serine β-lactamase inhibitor closely related to relebactam
Reported MB9798 MITC95 P. aeruginosa uM Efflux WT by item:
The answer is to be given in µM; state only the numeric part.

In the examples that follow, each entry is paired with its recorded MB9798 MITC95 P. aeruginosa uM Efflux WT.
- Compound: "NC(=O)[C@@H]1CN(c2ccc(S(=O)(=O)N[C@@H]3CCNC3)c(S(N)(=O)=O)c2-c2nn[nH]n2)CCN1"
  Tested On: "P. aeruginosa MB9798 (efflux+, IMP-1 plasmid)"
  Unit Of Measure: "µM"
  MB9798 MITC95 P. aeruginosa uM Efflux WT: 2.34
- Compound: "COC1(CN(C)C)CN(c2ccc(S(=O)(=O)N[C@@H]3CCNC3)c(S(N)(=O)=O)c2-c2nnn[nH]2)C1"
  Tested On: "P. aeruginosa MB9798 (efflux+, IMP-1 plasmid)"
  Unit Of Measure: "µM"
  MB9798 MITC95 P. aeruginosa uM Efflux WT: 3.13
- Compound: "NS(=O)(=O)c1c(S(=O)(=O)N[C@@H]2CCNC2)ccc(N2CCC(CO)CC2=O)c1-c1nn[nH]n1 (stereo partly shown)"
  Tested On: "P. aeruginosa MB9798 (efflux+, IMP-1 plasmid)"
  Unit Of Measure: "µM"
  MB9798 MITC95 P. aeruginosa uM Efflux WT: 3.13

Moving on to the next compound.
Asked: Given NC[C@@H](O)CNS(=O)(=O)c1ccc(N2CCC3(CC2)CC3N)c(-c2nn[nH]n2)c1S(N)(=O)=O (stereo partly shown) , state its recorded MB9798 MITC95 P. aeruginosa uM Efflux WT.
Given back: 1.56

---

Reported IC50 by item:
Target: VIM-1 (Pseudomonas aeruginosa (strain ATCC 15692 / DSM 22644 / CIP 104116 / JCM 14847 / LMG 12228 / 1C / PRS 101 / PAO1))
Experiment: biochemical
Conditions: CCF2-FA fluorescence assay, 2 hours at 25° C.; read-out: VIM1 IC50
The answer is to be given in nM; state only the numeric part.

In the examples that follow, each entry is paired with its recorded IC50.
- Compound: "CS(=O)(=O)CCN1CCN(c2ccc(S(=O)(=O)NC[C@H](O)CN)c(S(N)(=O)=O)c2-c2nn[nH]n2)CC1 [Example 117]"
  IC50 (nM): 2.58
- Compound: "NCC1CCN(c2ccc(S(=O)(=O)NC[C@@H](O)CN)c(S(N)(=O)=O)c2-c2nnn[nH]2)CC1 [Example 37]"
  IC50 (nM): 0.11
- Compound: "NCCNS(=O)(=O)c1ccc(N2CCC(CN)CC2)c(-c2nnn[nH]2)c1S(N)(=O)=O [Example 35]"
  IC50 (nM): 0.32

Moving on to the next compound.
Asked: Given NC1CCCN(c2ccc(S(=O)(=O)C3CNC3)c(S(N)(=O)=O)c2-c2nnn[nH]2)CC1 (stereo not shown) [Example 32] , state its recorded IC50.
Given back: 2.14

---

Molecular target: VIM-1 (Pseudomonas aeruginosa (strain ATCC 15692 / DSM 22644 / CIP 104116 / JCM 14847 / LMG 12228 / 1C / PRS 101 / PAO1))
Test: biochemical
Settings: CCF2-FA fluorescence assay, 2 hours at 25° C.; read-out: VIM1 IC50
Property Name: log10 of IC50 (log10 of the value in nM)
The common logarithm of IC50 in nM is what is listed.

In the examples that follow, each entry is paired with its recorded log10 of IC50.
- Molecule: "NS(=O)(=O)c1c(S(=O)(=O)N[C@@H]2CCNC2)ccc(N2CCCC(=NO)C2=O)c1-c1nn[nH]n1"
  log10 of IC50: -0.80
- Molecule: "NC[C@@H](O)CNS(=O)(=O)c1ccc(N2C[C@H]3CNC[C@H]3C2)c(-c2nn[nH]n2)c1S(N)(=O)=O"
  log10 of IC50: -0.05
- Molecule: "NC1CCN(c2ccc(S(=O)(=O)N[C@@H]3CCNC3)c(S(N)(=O)=O)c2-c2nn[nH]n2)C(=O)C1 (stereo partly shown)"
  log10 of IC50: 0.09

Asked: Given NS(=O)(=O)c1c(S(=O)(=O)N[C@@H]2CCNC2)ccc(N2CCCC(CO)C2)c1-c1nnn[nH]1 (stereo partly shown) , state its recorded log10 of IC50.
Given back: -0.72

Asked: Given NS(=O)(=O)c1c(S(=O)(=O)N[C@@H]2CCNC2)ccc(N2CC[C@H](O)C2)c1-c1nnn[nH]1 , state its recorded log10 of IC50.
Given back: 0.40

Asked: Given NC[C@@H](O)CNS(=O)(=O)c1ccc(N[C@H]2CCC[C@H]2N)c(-c2nn[nH]n2)c1S(N)(=O)=O , state its recorded log10 of IC50.
Given back: 1.90

Asked: Given NCCC1CN(c2ccc(S(=O)(=O)NC[C@H](O)CN)c(S(N)(=O)=O)c2-c2nn[nH]n2)C1 , state its recorded log10 of IC50.
Given back: 0.63

---

Please consider the recorded pIC50 for NDM-1 (Klebsiella pneumoniae) in what follows.
Notebook: values listed as pIC50 are -log10 of the concentration (mol/L).

In the examples that follow, each entry is paired with its recorded pIC50.
- Compound: "NC[C@@H](O)CNS(=O)(=O)c1ccc(N2CCC(CCn3cccn3)CC2)c(-c2nn[nH]n2)c1S(N)(=O)=O"
  pIC50: 10.15
- Compound: "NS(=O)(=O)c1c(S(=O)(=O)N[C@@H]2CCNC2)ccc(N2CCOC(CCO)C2)c1-c1nnn[nH]1 (stereo partly shown)"
  pIC50: 9.60
- Compound: "NC[C@@H](O)CNS(=O)(=O)c1ccc(N2CC[C@@H](N)[C@@H](F)C2)c(-c2nn[nH]n2)c1S(N)(=O)=O"
  pIC50: 7.82

Asked: Reported pIC50 for NDM-1 (Klebsiella pneumoniae), given NS(=O)(=O)c1c(S(=O)(=O)N[C@@H]2CCNC2)ccc(N2CCC(O)CC2)c1-c1nnn[nH]1 ?
Given back: 9.51

Asked: Reported pIC50 for NDM-1 (Klebsiella pneumoniae), given NC[C@@H](O)CNS(=O)(=O)c1ccc(N2CCC[C@@H](CN)C2)c(-c2nnn[nH]2)c1S(N)(=O)=O ?
Given back: 8.20

Asked: Reported pIC50 for NDM-1 (Klebsiella pneumoniae), given NS(=O)(=O)c1c(S(=O)(=O)N[C@@H]2CCNC2)ccc(N2CCN(CCO)CC2)c1-c1nnn[nH]1 ?
Given back: 8.87

Asked: Reported pIC50 for NDM-1 (Klebsiella pneumoniae), given NS(=O)(=O)c1c(S(=O)(=O)N[C@@H]2CCNC2)ccc(N2CCC(OCCO)CC2)c1-c1nnn[nH]1 ?
Given back: 10.10

Reference source for all entries: patent US11207312B2
